Test system: Danio rerio Tg(wt1b:EGFP) embryo, pronephros
Measurement description: glomerular width (mean of left and right), fold change vs DMSO control; higher = wider glomerulus
Run conditions: 25 µM; exposure: 24-48 hpf
Where a name gives a salt, the structure may show the parent alone.
Measured attribute: glomerular width

Recorded glomerular width, per entry:
C[C@]1(Cn2ccnn2)[C@H](C(=O)O)N2C(=O)C[C@H]2S1(=O)=O [Tazobactam] = 1.07
CN(C)CCOc1ccc(/C(=C(/CCCl)c2ccccc2)c2ccccc2)cc1 [Toremifene] = 0.904
OC[C@H]1O[C@@H](Oc2ccc(O)cc2)[C@H](O)[C@@H](O)[C@@H]1O [Arbutin] = 1.02

Quick note, glomerular width for CN(C(=O)C(Cl)Cl)c1ccc(OC(=O)c2ccco2)cc1 [Diloxanide furoate] landed at 0.777

Quick note, glomerular width for CCCCOc1ccc(OCCCN2CCOCC2)cc1 [Pramoxine hydrochloride] landed at 0.951

Quick note, glomerular width for CC1CC(OC(=O)C(O)c2ccccc2)CC(C)(C)N1C (configuration not stated) [Eucatropine hydrochloride] landed at 0.975

Quick note, glomerular width for CC(=O)O[C@@]12CO[C@@H]1C[C@H](O)[C@@]1(C)C(=O)[C@H](O)C3=C(C)[C@@H](OC(=O)[C@H](O)[C@@H](NC(=O)OC(C)(C)C)c4ccccc4)C[C@@](O)([C@@H](OC(=O)c4ccccc4)[C@H]21)C3(C)C [Docetaxel] landed at 0.978
